Where these numbers come from: the supplement of paper PMC6755084

B1: minF1; a variant is named by its letters at N, in order (parent)
chain: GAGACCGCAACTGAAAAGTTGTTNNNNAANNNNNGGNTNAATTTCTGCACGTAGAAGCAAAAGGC

# Variants of: B1
# PROTOCOL: fraction ligated after 30 min (ligated reads / total reads); higher = more ligase activity
# STATED_CONDITIONS: with F1*subA RNA substrate (template-directed ligation), 42 °C
Kindly state fraction ligated for each of the entries shown.

# fraction ligated (variant: ACGATGGATGT A40G ) is 0.0424

# fraction ligated (variant: `ATAAGGATGTG` ) is 0.00241

# fraction ligated (variant: TCGATGGATGT T23A ) is 0.0123

# fraction ligated (variant: CAGAGGATGTG A29T ) is 0.00872

# fraction ligated (variant: ATCAAATGGGT A28G G35T T38G A40T ) is 0.00125

# fraction ligated (variant: ATCAATGGATG A28G ) is 0.00279

# fraction ligated (variant: ATCAAATGGGT A28G G35A T38G A40T ) is 0.000933

# fraction ligated (variant: `ACAGATGATGT` ) is 0.00327

# fraction ligated (variant: ATCAAAGGAGT A28G G35T ) is 0.00323

# fraction ligated (variant: `ATGATGGAGTG` ) is 0.00146

# fraction ligated (variant: `TCAGATGAGTG` ) is 0.00318

# fraction ligated (variant: `ATCGATGGAGT` ) is 0.00434

# fraction ligated (variant: `ACAATGATGTG` ) is 0.00381

# fraction ligated (variant: ATCAAATGATG A28G ) is 0.00241

# fraction ligated (variant: ATCAAAGGAGT A28G A40G ) is 0.00414

# fraction ligated (variant: ATCAATGGAGT A28G G35T T38G A40T ) is 0.00109

# fraction ligated (variant: ATCGAGGATGT A40G ) is 0.0171

# fraction ligated (variant: ATAGATGGAGT G35T T38G A40T A41G ) is 0.00159

# fraction ligated (variant: ATCGATGGAGT G35T A40G ) is 0.0726

# fraction ligated (variant: ATCAAATGGTG A28G ) is 0.00482

# fraction ligated (variant: ATCAAATGGGT A28G ) is 0.00311

# fraction ligated (variant: `ACAGTGGTGTG` ) is 0.00205
